src = patent US20040224958A1

TARGET DESC: Cdk5/p25 (Homo sapiens)
ASSAY PROTOCOL: Cyclin-Dependent Kinase 5 (cdk5) Assay
Format: biochemical
MEASUREMENT PARAMETERS: Table 1
Description: Cyclin-Dependent Kinase 5 (cdk5) Assay Enzyme assays for IC50 determinations and kinetic evaluation were performed in 96-well filter plates (Millipore MAPH NOB 10). […] All components except histone and ATP were added to wells, and the plate was placed on a shaker for 5 minutes. […] The wells were then washed three times with 0.2 mL of 75 mM phosphoric acid and ^32P incorporation was determined with a beta plate counter (Wallac Inc, Gaithersburg, Md.).
pIC50: −log10 of the molar value.
Label Fulfilled when pIC50 is at or above 7; anything below gets Not fulfilled.

MOLECULE: O=c1ccc2cnc(Nc3ccc(-n4cccc4)cc3)nc2n1C1CCCC1 [Example 190]
DISCRETE LABEL: Fulfilled

MOLECULE: CC1CCCN(c2ccc(Nc3ncc4ccc(=O)n(C5CCCCC5)c4n3)cc2)C1 (stereo not shown) [Example 175]
DISCRETE LABEL: Not fulfilled

*Q* pIC50 >= 7 for O=c1ccc2cnc(Nc3ccc(SC(F)(F)F)cc3)nc2n1C1CC2CCC1C2 (stereo not shown) [Example 221] ?
*A* Not fulfilled

*Q* Is it the case that O=c1ccc2cnc(Nc3ccccc3)nc2[nH]1 [Example 32] has pIC50 reaching or exceeding 7?
*A* Not fulfilled

*Q* Quick check: does O=c1ccc2cnc(Nc3ccccc3)nc2n1-c1ccccc1 [Example 101] have pIC50 greater than or equal to 7?
*A* Not fulfilled

*Q* Please indicate if the recorded pIC50 for CCn1c(=O)ccc2cnc(Nc3cccc(F)c3)nc21 [Example 89] meets or exceeds 7.
*A* Not fulfilled

*Q* Is it the case that O=c1ccc2cnc(Nc3ccc(-n4cccn4)cc3)nc2n1C1CCCCC1 [Example 162] has pIC50 reaching or exceeding 7?
*A* Fulfilled

*Q* Kindly determine if pIC50 recorded for CCn1c(=O)ccc2cnc(Nc3cccc(F)c3OC)nc21 [Example 91] is above or exactly 7.
*A* Not fulfilled

*Q* Is pIC50 for CC1CC(C)CN(c2ccc(Nc3ncc4ccc(=O)n(C5CCCCC5)c4n3)cc2)C1 (stereo not shown) [Example 167] at or above 7?
*A* Not fulfilled

*Q* Identify whether the reported pIC50 of the following molecule is 7 or greater: O=c1ccc2cnc(Nc3ccc(N4CCCC(O)C4)cc3)nc2n1C1CC2CCC1C2 (stereo not shown) [Example 254]
*A* Fulfilled

*Q* Answer whether pIC50 of CN1CCN(c2ccc(Nc3ncc4ccc(=O)n(C5CCCCC5)c4n3)cc2)CC1 [Example 133] is greater than or equal to 7.
*A* Fulfilled

*Q* Test whether the molecule CC1CN(c2ccc(Nc3ncc4ccc(=O)n(C5CC6CCC5C6)c4n3)cc2)CC(C)N1 (stereo not shown) [Example 255] records pIC50 of 7 or higher.
*A* Fulfilled

*Q* Hi, just wondering whether O=c1ccc2cnc(Nc3ccccc3)nc2n1C1CCCCC1 [Example 131] shows pIC50 of 7 or higher.
*A* Fulfilled

*Q* Test whether the molecule O=c1ccc2cnc(Nc3ccc(-c4ccccc4)cc3)nc2n1C1CC2CCC1C2 (stereo not shown) [Example 223] records pIC50 of 7 or higher.
*A* Not fulfilled

*Q* Evaluate CCn1c(=O)c(C)cc2cnc(Nc3ccccc3)nc21 [Example 83] : pIC50 at minimum 7?
*A* Not fulfilled
